Data origin: paper PMC6328172

Target: human 5-HT2C receptor (Homo sapiens, UniProt P28335)
Construct: expressed in transfected cells; host or cells: HeLa (HeLa-5-HT2C cell line)
Sequence (P28335 33-458): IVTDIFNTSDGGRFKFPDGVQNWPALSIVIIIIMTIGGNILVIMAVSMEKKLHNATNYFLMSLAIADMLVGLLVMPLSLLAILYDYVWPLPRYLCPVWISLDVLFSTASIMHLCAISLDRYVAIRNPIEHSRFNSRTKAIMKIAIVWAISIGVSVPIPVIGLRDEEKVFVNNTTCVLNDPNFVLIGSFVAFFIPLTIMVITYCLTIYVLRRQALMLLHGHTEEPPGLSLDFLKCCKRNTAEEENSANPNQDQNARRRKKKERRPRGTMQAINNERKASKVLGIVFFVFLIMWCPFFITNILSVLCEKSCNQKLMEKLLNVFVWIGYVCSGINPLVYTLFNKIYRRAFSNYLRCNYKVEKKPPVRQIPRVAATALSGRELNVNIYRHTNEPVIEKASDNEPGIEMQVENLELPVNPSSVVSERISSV
Assay: Competition binding to the human 5-HT2C receptor ([3H]mesulergine, HeLa-5-HT2C membranes)
Conditions: from Ki values, Table 1
List of Selectivity 5-HT2C/2A (binding, in parentheses) values.
I'd appreciate a reply containing only the number, no unit.

What the record says about "Oc1c(Br)cccc1CNCCc1c[nH]c2ccccc12" : Selectivity 5-HT2C/2A (binding, in parentheses) is 0.10

What the record says about "Cc1ccc(CNCCc2c[nH]c3ccccc23)cc1" : Selectivity 5-HT2C/2A (binding, in parentheses) is 1.23

What the record says about "Oc1ccc(CNCCc2c[nH]c3ccccc23)cc1" : Selectivity 5-HT2C/2A (binding, in parentheses) is 0.92

What the record says about "COc1ccc(CNCCc2c[nH]c3ccccc23)c(OC)c1" : Selectivity 5-HT2C/2A (binding, in parentheses) is 2.44

What the record says about "COc1ccc2[nH]cc(CCNCc3ccccc3)c2c1" : Selectivity 5-HT2C/2A (binding, in parentheses) is 0.34
